Biological target: T1, Ole e 1 (olive, UniProt P19963 1-145)
T1 construct: Also used oligonucleotide-barcoded for cell staining; also called olive allergen; negative control allergen
T1 sequence (looked up): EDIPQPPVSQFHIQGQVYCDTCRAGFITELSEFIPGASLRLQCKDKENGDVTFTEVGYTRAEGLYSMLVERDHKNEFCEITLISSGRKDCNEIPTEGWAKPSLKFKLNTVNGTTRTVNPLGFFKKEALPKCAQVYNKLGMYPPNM
Assay: barcoded-antigen count on source cell
Endpoint: Olee1_ab_raw

Binder	Endpoint	Result
IgE mAb 17_2 (antibody, V domains shown, IgE (IGHE, IGKC) from HDM-exposed mouse, LymphNode) VH: EVHLQQSGPDLVKPGASVMISCQASGYSFTAYYINWVKQSPEKSLEWIGEINPGSGGVIYNRKFEAKATLIVDKSSNTAFMLLTRLTSEDSAIYYCARKGFYQFDYWGQGTTLTVSS VL: SVVMTQIPKFLVVSAGDRVTITCKASQSVNDGVFWYQQKTGQSPKLVIYHTSNRYTGVSDRFTGSGYGTEFTFTISAVQSEDLAIYFCQQDYTSPLTFGGGTRLEIK	Olee1_ab_raw	3 counts
